The measured values listed here are drawn from PubChem BioAssay AID2060619.

Each entry below lists one item and its recorded viability, T/C value.
System: 323965-272-R-J2-PDC complex spheroid viability
Test: Anticancer human tumor 323965-272-R-J2-PDC patient-derived pancreatic carcinoma cell line growth inhibition [CLK]
Conditions: second compound 0.1 µM; first compound 1 µM; hits give low values
Write it as a number; the unit % goes unstated.

Solved cases (2 shown):
// viability, T/C lookup, compound = CCc1c2c(nc3ccc(O)cc13)-c1cc3c(c(=O)n1C2)COC(=O)[C@]3(O)CC + CN1CCN(c2cc(C(=O)Nc3cc4cc(-c5cnn(C)c5)ccc4cn3)ccn2)CC1 , result: 19.7

viability, T/C for CC(CO)NC(=O)c1cc(-c2ccc(Cl)cc2)nn(-c2cnn(C)c2)c1=O (stereo not drawn) + CN1CCN(c2cc(C(=O)Nc3cc4cc(-c5cnn(C)c5)ccc4cn3)ccn2)CC1 is 72.5

From here, focus on the item given below.
For CCCS(=O)(=O)Nc1ccc(F)c(C(=O)c2c[nH]c3ncc(-c4ccc(Cl)cc4)cc23)c1F + CNC(=O)c1ccc(Nc2nc(OC3CCCC3)c3c(-c4ccc5nc(C)oc5c4)c[nH]c3n2)c(OC)c1 the compound record lists viability, T/C as 98.3

====

System: 323965-272-R-J2-PDC complex spheroid viability
Test: Anticancer human tumor 323965-272-R-J2-PDC cell line growth inhibition [CLK];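 also: spheroids exposed to agents for seven days before readout; percent of DMSO vehicle control wells so 100% = untreated growth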
Settings: second compound 3.16 µM; first compound 0.316 µM; hits give low values
Binary call on viability, T/C with cut-off 20%: strictly below means t, and equality or higher means f.

These recorded examples may help you get a feel for the data.
Is viability, T/C of C#Cc1c(F)ccc2cc(O)cc(-c3ncc4c(N5CC6CCC(C5)N6)nc(OCC56CCCN5CC(F)C6)nc4c3F)c12 (stereo not given) + CNC(=O)c1ccc(Nc2nc(OC3CCCC3)c3c(-c4ccc5nc(C)oc5c4)c[nH]c3n2)c(OC)c1 strictly below 20%?
f

Report whether reported viability, T/C is lower than 20% (strictly) for Nc1ccn(C2OC(CO)C(O)C2(F)F)c(=O)n1 (stereo not given) + CNC(=O)c1ccc(Nc2nc(OC3CCCC3)c3c(-c4ccc5nc(C)oc5c4)c[nH]c3n2)c(OC)c1
f

Item COc1c(OCCCN2CCOCC2)ccc2c3n(c(=NC(=O)c4cnc(N)nc4)nc12)CCN3 + CNC(=O)c1ccc(Nc2nc(OC3CCCC3)c3c(-c4ccc5nc(C)oc5c4)c[nH]c3n2)c(OC)c1 : viability, T/C beneath 20%, strictly?
t

Determine whether this molecule shows viability, T/C lower than 20% (ties excluded): CC1COCCN1c1cc(C2(S(C)(=N)=O)CC2)nc(-c2ccnc3[nH]ccc23)n1 (stereo not given) + CN1CCN(c2cc(C(=O)Nc3cc4cc(-c5cnn(C)c5)ccc4cn3)ccn2)CC1
t

# evaluate next
Criterion: viability, T/C strictly below 20%. Is it met by CC1(C)CCC(CN2CCN(c3ccc(C(=O)NS(=O)(=O)c4ccc(NCC5CCOCC5)c([N+](=O)[O-])c4)c(Oc4cnc5[nH]ccc5c4)c3)CC2)=C(c2ccc(Cl)cc2)C1 + CN1CCN(c2cc(C(=O)Nc3cc4cc(-c5cnn(C)c5)ccc4cn3)ccn2)CC1 ?
t

====

Tested on: 323965-272-R-J2-PDC complex spheroid viability
Assay: Anticancer human tumor 323965-272-R-J2-PDC cell line growth inhibition [CLK]; active means viability on the fitted dose curve at most 10% of control; inactive means the rest;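 also: spheroids exposed to agents for seven days before readout; percent of DMSO vehicle control wells so 100% = untreated growth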
Settings: second compound 10 µM; first compound 0.00316 µM
Hi! Could you answer with just one of these? active, inactive

Solved cases below.
Field: outcome | Entry: COc1c(OCCCN2CCOCC2)ccc2c3n(c(=NC(=O)c4cnc(N)nc4)nc12)CCN3 + CNC(=O)c1ccc(Nc2nc(OC3CCCC3)c3c(-c4ccc5nc(C)oc5c4)c[nH]c3n2)c(OC)c1
inactive

I would be grateful if you could indicate the recorded call for CCc1c2c(nc3ccc(O)cc13)-c1cc3c(c(=O)n1C2)COC(=O)[C@]3(O)CC + CN1CCN(c2cc(C(=O)Nc3cc4cc(-c5cnn(C)c5)ccc4cn3)ccn2)CC1 .
active

Here's the next entry for you.
Per the assay record, what outcome was assigned to Cn1ncnc1[C@H]1c2n[nH]c(=O)c3cc(F)cc(c23)N[C@@H]1c1ccc(F)cc1 + CNC(=O)c1ccc(Nc2nc(OC3CCCC3)c3c(-c4ccc5nc(C)oc5c4)c[nH]c3n2)c(OC)c1 ?
inactive
